- target-system: UniProtKB Q12809
- method-summary: in vitro
- settings: HEK
property-label: inhibition at 30 µM (%)
Please give a number only; it is taken to be in %.

Task: State its inhibition at 30 µM on UniProtKB Q12809: `Nc1ccc(O)cc1-c1cc(=O)c2ccccc2o1`
Result: 9.05

----------
- target-system: UniProtKB Q12809
- method-summary: in vitro
- settings: HEK
property-label: inhibition at 10 µM (%)
Please give a number only; it is taken to be in %.

Task: State its inhibition at 10 µM on UniProtKB Q12809: `Nc1ccc(O)cc1-c1cc(=O)c2ccccc2o1`
Result: 10.9

----------
- method-summary: in vitro
- settings: mouse, liver microsomes
property-label: microsomal CLint at 5 µM (µL/min/mg)
Please give a number only; it is taken to be in µL/min/mg.

Task: Which microsomal CLint at 5 µM value is on record for `Nc1ccc(O)cc1-c1cc(=O)c2ccccc2o1` ?
Result: 5.6

----------
- target-system: hERG (Homo sapiens)
- Sequence (Q12809 whole entry): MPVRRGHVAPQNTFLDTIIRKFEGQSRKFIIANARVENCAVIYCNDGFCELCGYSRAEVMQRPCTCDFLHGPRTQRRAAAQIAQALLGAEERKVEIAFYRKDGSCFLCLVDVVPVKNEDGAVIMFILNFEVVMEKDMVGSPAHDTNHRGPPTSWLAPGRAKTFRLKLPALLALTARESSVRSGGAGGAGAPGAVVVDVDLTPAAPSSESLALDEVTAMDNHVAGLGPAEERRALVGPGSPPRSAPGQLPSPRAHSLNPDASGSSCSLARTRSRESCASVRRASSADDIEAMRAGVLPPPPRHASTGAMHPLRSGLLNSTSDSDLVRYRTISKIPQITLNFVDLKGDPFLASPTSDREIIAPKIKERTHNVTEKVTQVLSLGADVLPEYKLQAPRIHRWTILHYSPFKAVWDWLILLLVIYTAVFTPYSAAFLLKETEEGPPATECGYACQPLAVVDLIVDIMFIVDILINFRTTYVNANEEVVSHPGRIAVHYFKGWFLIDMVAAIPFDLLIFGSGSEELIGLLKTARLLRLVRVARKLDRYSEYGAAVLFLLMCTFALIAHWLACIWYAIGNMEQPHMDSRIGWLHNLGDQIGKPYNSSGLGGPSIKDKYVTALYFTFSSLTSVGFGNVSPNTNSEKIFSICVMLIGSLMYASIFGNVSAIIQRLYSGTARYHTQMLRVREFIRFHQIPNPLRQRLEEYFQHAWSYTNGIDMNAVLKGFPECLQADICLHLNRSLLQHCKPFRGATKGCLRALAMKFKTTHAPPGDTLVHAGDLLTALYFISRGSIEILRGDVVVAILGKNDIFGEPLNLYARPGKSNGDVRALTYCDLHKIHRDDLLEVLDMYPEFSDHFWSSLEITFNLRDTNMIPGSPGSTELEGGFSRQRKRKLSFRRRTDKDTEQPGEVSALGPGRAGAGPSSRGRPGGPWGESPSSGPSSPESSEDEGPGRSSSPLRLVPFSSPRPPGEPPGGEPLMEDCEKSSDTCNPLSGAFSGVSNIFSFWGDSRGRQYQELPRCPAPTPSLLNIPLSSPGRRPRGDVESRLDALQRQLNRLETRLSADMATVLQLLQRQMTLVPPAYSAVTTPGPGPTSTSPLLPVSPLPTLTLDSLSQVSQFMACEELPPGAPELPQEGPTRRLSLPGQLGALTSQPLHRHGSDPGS
- method-summary: in vitro
- settings: HEK
property-label: inhibition at 1 µM (%)
Please give a number only; it is taken to be in %.

Task: Which inhibition at 1 µM value is on record for `Nc1ccc(O)cc1-c1cc(=O)c2ccccc2o1` ?
Result: 14.1

----------
- target-system: hERG (Homo sapiens)
- method-summary: in vitro
- settings: HEK
property-label: inhibition at 0.1 µM (%)
Please give a number only; it is taken to be in %.

Task: Which inhibition at 0.1 µM value is on record for `Nc1ccc(O)cc1-c1cc(=O)c2ccccc2o1` ?
Result: -8.53

----------
- method-summary: in vitro
- settings: mouse, liver microsomes
property-label: half-life at 5 µM

Task: Which half-life at 5 µM value is on record for `Nc1ccc(O)cc1-c1cc(=O)c2ccccc2o1` ?
Result: 8.25 h
